Test system: Klebsiella pneumoniae
Assay conditions: Concentration 32 ug.mL-1;; ASSAY_TEST Inhibition of Bacterial Growth; detection method Absorption (OD600); MEDIA CAMHB; plate type 384well; NBS; CORNING #3640; time 18 hr
Description: Antibacterial activity against Klebsiella pneumoniae MDR ATCC 70063 (CO-ADD:GN_003); MIC in CAMBH media using NBS plates, by OD(600)
Potency and affinity values are given separately.
Note to self: Inhibition under 10% means label 1, ties and anything higher get label 0.

Smiles code	Cat
Cc1[nH]c2ccccc2c1C(=O)CSc1nnc2c(=O)n(-c3ccc(Br)cc3)ccn12	label 1

Please determine if Cc1ccc(NC(=O)Cn2nc3ccc(SC(C)C)nn3c2=O)cc1F is below 10% in terms of Inhibition. label 1

Find out if reported Inhibition for Cc1ccccc1CSc1nnc2c(=O)n(-c3ccc(F)c(F)c3)ccn12 is less than 10% label 1

Please indicate whether the reported Inhibition of COc1ccc(-c2cc3c4nnc(CCC(=O)NCc5ccc(OC)cc5OC)n4ccn3n2)cc1 is strictly below 10%. label 0

====

Test system: Klebsiella pneumoniae
Assay conditions: Concentration 32 ug.mL-1;; ASSAY_TEST Inhibition of Bacterial Growth; detection method Absorption (OD600); MEDIA CAMHB; plate type 384well; NBS; CORNING #3640; time 18 hr
Measured potencies and affinities stand elsewhere.
Recorded endpoint: Inhibition (%)
Answers are plain numbers, in %.

Reference set (5 entries):
Smiles code	Tested on	Test value
O=C(Cn1nc2c(Sc3cccc(F)c3)nccn2c1=O)Nc1cccc(C(F)(F)F)c1	Klebsiella pneumoniae	14.77
Cc1ccc(NC(=O)Cn2nc3ccc(C(=O)NCc4ccccc4)cn3c2=O)c(Br)c1	Klebsiella pneumoniae	-0.66
COc1ccc(-c2cc3c4nn(CC(=O)Nc5c(C)cccc5C)c(=O)n4ccn3n2)cc1	Klebsiella pneumoniae	9.85
Cc1ccc(-c2ccc3nn(Cc4ccc(Cl)cc4)c(=O)n3n2)cc1C	Klebsiella pneumoniae	5.62
CCOC(=O)c1ccccc1NC(=O)Cn1c(=O)c2nnc(C(C)C)n2c2ccccc21	Klebsiella pneumoniae	12

Would you be so kind as to report Inhibition for each listed record?
1. Cc1ccc(NC(=O)Cn2nc3c(N4CCOCC4)nccn3c2=O)cc1F
2. O=C(CSc1nnc2c(=O)n(-c3ccccc3)ccn12)Nc1ccccc1F
3. Cc1ccc(-c2ccc3nn(Cc4cc(F)cc(F)c4)c(=O)n3n2)cc1C
4. O=C(CSc1nc2ccccc2n2cnnc12)Nc1cccc(Br)c1
5. COc1ccc(NC(=O)CSc2nnc3ccc(C(=O)Nc4cccc(F)c4)cn23)cc1
6. O=C(Cn1nc2c(SCc3ccccc3)nccn2c1=O)NCc1ccc(Cl)cc1

[7.04, 7.24, 3.15, 2.26, 4.36, -3.05]

For every listed record, write down its Inhibition.
1. Cc1ccc(-c2cc3c4nnc(CCC(=O)NCc5ccc(C(F)(F)F)cc5)n4ccn3n2)cc1C
2. COc1ccc(CN(c2ccc(F)cc2)S(=O)(=O)c2cccn3c(C)nnc23)cc1
3. Cc1cc(C)c(NC(=O)Cn2nc3n(C)c(=O)c4c(c(-c5ccccc5)cn4C)n3c2=O)c(C)c1

10.93
13.21
4.68

Lab note: each compound below needs its Inhibition filled in.
1. Cc1ccc(Oc2nccn3c(=O)n(CC(=O)NCc4cccs4)nc23)cc1
2. CCc1ccc(N(Cc2ccccc2)S(=O)(=O)c2cccn3cnnc23)cc1
3. CCOc1ccc(C(=O)CSc2nnc3c(=O)n(-c4ccc(Br)cc4)ccn23)cc1
4. COc1ccc(OC)c(NC(=O)Cn2nc3c4c5c(sc4ncn3c2=O)CCCC5)c1
5. Cc1ccc(NC(=O)Cn2nc3cc(C)nc(Nc4ccc(F)cc4)n3c2=O)cc1
6. COc1ccc(-c2cc3c4nn(CC(=O)Nc5ccc(C)c(C)c5)c(=O)n4ccn3n2)cc1

1. 11.41
2. 1.9
3. 15.85
4. 8.89
5. 11.23
6. 5.79
